experiment: amyloid nucleation score (Sup35N fusion, yeast selection) (log enrichment); library NNK2; higher = more nucleation; inactive = no reads after selection;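 note: zero at mode of non-aggregating sequences after 7 days selection at 30°C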

| substance | amyloid nucleation score |
| --- | --- |
| FDLCTLFYNSRFHIIRYWVT | inactive |
| TTILEL | -0.305 |
| RTLFSRFYRRSMFNLSVKKK | inactive |

###

assay: amyloid nucleation score (Sup35N fusion, yeast selection) (log enrichment); library NNK2; higher = more nucleation; inactive = no reads after selection
readout.name: amyloid nucleation score

| substance | readout.name | result.value |
| --- | --- | --- |
| DFNIIECSPGRGVHHDDWEP | amyloid nucleation score | inactive |
| NRQLWYPSINKYFFKSADPL | amyloid nucleation score | inactive |
| DRARMYYYSEIHSVVTSIIK | amyloid nucleation score | inactive |
| LKRRPFDAFNVRMVLVNECG | amyloid nucleation score | inactive |

Exercise: Return reported amyloid nucleation score; argument: KMHLAQ
Key: inactive

###

experiment: amyloid nucleation score (Sup35N fusion, yeast selection) (log enrichment); library NNK2; higher = more nucleation; inactive = no reads after selection
readout.name: amyloid nucleation score

These recorded examples may help you get a feel for the data.
| substance | amyloid nucleation score |
| --- | --- |
| WCAPWPWVKCLFTSPVFSVV | 0.712 |
| SGCFVWPELVGESSIIMCPS | inactive |
| FRNAGIKRCPFVTRDQSTHF | inactive |
| IYLTSIYRQFSMLLLGSRTE | inactive |
| RCSVVNWDNHVMLALDRVGY | inactive |
| IHLIREVAQRFTSCA | 0.7 |

Exercise: Return reported amyloid nucleation score; argument: CAVDLFGVAIRALMFRSWGC
Key: inactive

Exercise: LVHYFICHVPFLIFRYDKVT ?
Key: inactive

Exercise: IDSDSFHDRSTSRHLFNGLA ?
Key: inactive

Exercise: GELWCDLRILFVGVSLIVL ?
Key: inactive

Exercise: NQTCTE ?
Key: 0.7

Exercise: FYSFGGNGDYSPKSGHWS ?
Key: inactive

###

experiment: amyloid nucleation score (Sup35N fusion, yeast selection) (log enrichment); library NNK3; higher = more nucleation; inactive = no reads after selection
readout.name: amyloid nucleation score

These recorded examples may help you get a feel for the data.
| substance | result.value |
| --- | --- |
| DIQYWYTPVTKMTYSTNWFF | 1.26 |
| TYLVNSDMMGDRIFGACRDV | inactive |
| FAIFGSWPKFFSCTP | 0.378 |
| DFLVVYNAMCDKELVDTGEI | inactive |
| DRILAYKTYLGNYLLVVLYN | inactive |

Exercise: Return reported amyloid nucleation score; argument: NDEMVY
Key: inactive

Exercise: FKDMFPNLSTCLLIVRM ?
Key: inactive

###

assay: amyloid nucleation score (Sup35N fusion, yeast selection) (log enrichment); library NNK2; higher = more nucleation; inactive = no reads after selection
// bucketize amyloid nucleation score: 1: < 0.1; 2: ≥ 0.1 and < 2; 3: ≥ 2

| residue.codes | category |
| --- | --- |
| LTLCSFRCTKLMR | 2 |

Exercise: State the class of the sequence shown: LLSPYMLRLMV
Key: 1

Exercise: PRGEFTWWSLGIIPNRWQCR ?
Key: 1

Exercise: NRRGANCVQS ?
Key: 1

Exercise: WQRMDGIGELILMCCRYSFL ?
Key: 3

Exercise: GSLGASVSNFGVAYSLCATR ?
Key: 1

Exercise: AVIDIIKRTSCTCDESCCIR ?
Key: 2

Exercise: VVCEASTCDMLESEWFWAEF ?
Key: 2

Exercise: HGNWGLLYLTDALVKMIQDV ?
Key: 1

Exercise: VIFLVDNCCMACDSLEPRTI ?
Key: 2

Exercise: GFLFMVMRSQLRCVYINKY ?
Key: 2

Exercise: ENNVKLIRNTTNTVVYHLIP ?
Key: 3

Exercise: GGMLPYVVITFETFMPRCMN ?
Key: 1

Exercise: LTTSFANAWHFNFLGRPLH ?
Key: 3

Exercise: VTPDLDCLRDNDMVCGGPDQ ?
Key: 2

Exercise: WYALNYTIPEPYWT ?
Key: 2

Exercise: SRAIECVRIYTFNSHSWFIA ?
Key: 1

Exercise: PIRCRMKFY ?
Key: 1

Exercise: GNRFPRPSPQGIIYKLLLFR ?
Key: 3

Exercise: VIVVRNQRKFVTSDLPLKVC ?
Key: 2

Exercise: GIQVNYRWLGFGVGKRKARL ?
Key: 3

Exercise: LYCQFSYVRCKPGKRSDLGW ?
Key: 2

Exercise: PCACCYGSLAYAAVHSNWLG ?
Key: 3

Exercise: NIMSFFHLSLGVDFVHVSPG ?
Key: 2

Exercise: YIVCYAVSGLVWSIGSHEGM ?
Key: 2

Exercise: WGSISNIFYLLRVLYCLSMS ?
Key: 2

Exercise: FQNGQDGYGESLV ?
Key: 1

Exercise: HHSELFIIITYFG ?
Key: 2

###

assay: amyloid nucleation score (Sup35N fusion, yeast selection) (log enrichment); library NNK1; higher = more nucleation; inactive = no reads after selection
amyloid nucleation score values for the sequences below.

These recorded examples may help you get a feel for the data.
| residue.codes | amyloid nucleation score |
| --- | --- |
| INVWNLSWGNMIRAKNHLGV | -0.107 |
| KTSFSCSIRSSYVDWGLGDS | 2.66 |
| QSFSKKEESYILYITRVHEP | 0.88 |

Exercise: Return reported amyloid nucleation score; argument: RMDSRKGTNNKSFSGGLEYR
Key: -0.366

Exercise: MVSSCWICRALKAYVLQPWV ?
Key: 0.108

###

assay: amyloid nucleation score (Sup35N fusion, yeast selection) (log enrichment); library NNK1; higher = more nucleation; inactive = no reads after selection
readout.name: amyloid nucleation score
// keep it numeric: no unit symbol after the value

These recorded examples may help you get a feel for the data.
| substance | amyloid nucleation score |
| --- | --- |
| NVFCPVHENVSRLLQRHTRL | 1.1 |
| WLSGYKSQMVK | -0.291 |
| DILEIWL | -0.481 |
| FASRNISG | -0.054 |
| GSYRLKCCTYLVGKY | 1.73 |
| MSSSKGVVYDCFCSMWWLLP | 0.018 |

Exercise: Return reported amyloid nucleation score; argument: GNVIGGNMVVQWYSFCTVCV
Key: 6.34

Exercise: CYIYPVFLGFMYCREEGNMG ?
Key: 1.93

Exercise: TRALVFRQYYIAPVHCYYLG ?
Key: 3.54

Exercise: VWFCIYAFVHSYGLYVVSMV ?
Key: -0.03

Exercise: YSSSPVFGCEAPGDYQLGY ?
Key: 1.24

###

assay: amyloid nucleation score (Sup35N fusion, yeast selection) (log enrichment); library NNK1; higher = more nucleation; inactive = no reads after selection
Tick 1 if amyloid nucleation score is 0.3 or greater. Tick -1 if amyloid nucleation score is less than 0.3.

Record excerpt, results attached:
| residue.codes | category |
| --- | --- |
| SLWITFLPLIGLSAVRRRVR | -1 |
| NYTNCTSTDRI | 1 |
| NYRFVCEPYFYSNCPPAQWT | -1 |
| SGSRGMFSKCVDK | 1 |
| ILICKSVRVQYTLSKLW | 1 |
| LGCLFNAGAFWAYGGMVSLH | -1 |
| TVSLGVAAVMFPR | 1 |
| KYRSCGNGIPLIISHLLVER | 1 |

Exercise: Check if amyloid nucleation score >= 0.3 (inclusive). Item: YFAVDDNYLHIQTSVRSRCS
Key: -1

Exercise: CMIIRVGGRQGIHYSFSRMD ?
Key: -1

Exercise: CRACSHMTKLLIGTFLLLDF ?
Key: -1

###

test: amyloid nucleation score (Sup35N fusion, yeast selection) (log enrichment); library NNK1; higher = more nucleation; inactive = no reads after selection
Tick Yes if amyloid nucleation score is 0.3 or greater. Tick No if amyloid nucleation score is less than 0.3.

Record excerpt, results attached:
| substance | category |
| --- | --- |
| IHGSRCVPKSQD | No |
| VLSRSMH | No |

Exercise: Check if amyloid nucleation score >= 0.3 (inclusive). Item: HALMTARAFTCPWRMVVKFQ
Key: Yes

Exercise: CRLKLNPSVHGIGRGVCLAE ?
Key: No

Exercise: TLGPAWNVKFAWVFSFLVCI ?
Key: Yes

Exercise: WNRFRIMQLDITG ?
Key: No

Exercise: FSSNLLECRCLWKTQASNST ?
Key: No

Exercise: RTMEYAPGCLVAFDYK ?
Key: No

Exercise: WCCGLCVLMQLNTVMLSKGL ?
Key: Yes

Exercise: TFSWYRLRSVMGLVGNAAMI ?
Key: Yes

Exercise: VRFFAPPWTWWLC ?
Key: No

Exercise: KIVCLKFYVIDMRSMLTVVS ?
Key: Yes

Exercise: NVNEDRPAGALVLEFLNRTL ?
Key: Yes

Exercise: SSCKWSSKPAHEFQVMTAPT ?
Key: No

Exercise: RSQPLGADVVKLPASRLGRL ?
Key: No

Exercise: EFFRVMPGNT ?
Key: Yes

Exercise: KSCTCRNSSYRYVHINLARY ?
Key: No

Exercise: YVSADLGMYTVDGAEFYCEN ?
Key: No

Exercise: RPGWSHRITENLPFVEKVGP ?
Key: No

Exercise: YLWVIATLQFEV ?
Key: No

Exercise: YGSGPNDWLYVWGNSLWQKV ?
Key: No

Exercise: RTSVLVSASALPNSLSFRQG ?
Key: No

Exercise: GTCYGCLLILVCSLFGSTTG ?
Key: Yes

Exercise: SPPSSNIFPCI ?
Key: No
